# Tested on: DU-145 prostate
# test details: NCI-60 one-dose screen, 48 h (100 = growth as untreated, 0 = no growth, -100 = all killed)
# experimental conditions: 10 µM
About 83,000 compounds went through this panel and 20% of them were active in at least one assay; those are over-represented in the sample as a whole.
So I've got a bunch of compounds here, and I need their growth values.
One number for each entry, in %.

compound=CCCCSc1nc(Nc2ccc(/C(C)=N/NC(N)=S)cc2)c(C#N)c(-c2ccccc2)n1 measured_result=36.2
compound=COc1ccc(/C=C/C(=O)c2ccc(N3CCN(C)CC3)cc2)c(C(F)(F)F)c1 measured_result=41.3

Provide reported growth for each item, in the same order as listed.
1. Nc1nnc(-c2c[nH]c3ccc(F)cc23)c(-c2c[nH]c3ncccc23)n1
2. COc1ccc(-c2ccc(SCC(=O)Nc3ccc(C#N)cc3)nn2)cc1
3. O=C(c1ccc(O)cc1)C1[C@H](c2ccccc2Br)[C@@H](c2ccccc2)NC12C(=O)Nc1ccc(Cl)cc12 (some centres undefined)
4. Cc1ccc(/C(N)=N/c2sc(-c3ccccc3)nc2-c2ccccc2)cc1

1. 82
2. 105
3. 32.5
4. 89

Give one value of growth per listed compound.
1. COc1cccc(-c2ccnc(/N=C(\N)Nc3ccc(S(=O)(=O)Nc4nc(C)cc(C)n4)cc3)n2)c1
2. CN1CCN(Cc2ccc(C(=O)Nc3cccc(Nc4ccc5cc(O)ccc5n4)c3)cc2C(F)(F)F)CC1
3. C/C(=C\CSc1ccccc1C(=O)O)CCCC(C)CCCC(C)CCCC(C)C (centres undefined)

1: 111; 2: -16.1; 3: 67.1

###

# Test system: M14 melanoma
# test details: NCI-60 one-dose screen, 48 h
# experimental conditions: 10 µM
# Experimental: Growth inhibition of the M14 human tumor cell line is measured as a screen for anti-cancer activity. Cells are grown in 96 well plates and exposed to the test compound for 48 hours. Compounds are tested at a single concentration, which is 10^-5 M for most compounds. The reported endpoint is percent growth (GI% or GIPRCNT), where numbers from 0 - 100% represent growth inhibition, and numbers from -100% - 0 represent cell death. For example, a value of 40 represents 60% growth inhibition. […]
Compounds without any hit were thinned out: in the full panel of roughly 83,000, 20% have a hit. The source made the active and inactive calls. How the source made its calls: active means growth percent below 10; inactive means the rest.
Answer with one of the outcomes t = active, f = inactive

compound=COc1nccnc1NS(=O)(=O)c1ccc(NC2=C(Cl)C(=O)c3nc(C)ccc3C2=O)cc1 label_class=f

Dear colleague, could you share the recorded outcome for Cn1cc(-c2cc(N)n3nc(-c4c[nH]c5ccc(Br)cc45)cc3n2)c2cc(Br)cnc21 when you have a moment?
t

Hi team, can someone confirm the assay call for COc1ccc(C(=O)/C=C/c2cc(C(F)(F)F)cc(C(F)(F)F)c2)cc1S(N)(=O)=O ?
t

I would be grateful if you could indicate the recorded call for CCCn1c(=O)c2[nH]c(-c3ccc(OCc4nc5ccc(C(F)(F)F)cc5[nH]4)cc3)nc2n(CCC)c1=O .
f

Test call for this compound, please: CONC[C@]1(C)C=C2C(=O)[C@](C)(O)C3(CC3)C(C)=C2[C@H]1O
t

###

# Test system: MDA-MB-435 melanoma
# test details: NCI-60 one-dose screen, 48 h (100 = growth as untreated, 0 = no growth, -100 = all killed)
# experimental conditions: 10 µM
About 83,000 compounds went through this panel and 20% of them were active in at least one assay; those are over-represented in the sample as a whole.
// NB: equality with 50% counts as NOT MET; only growth strictly below is MET

Please review the following examples before continuing.
smiles_str=CN(C)c1ccc(/C=C/c2nc3ccccc3c(=O)n2CC(=O)Nc2ccccc2)cc1 assayed_system="MDA-MB-435 melanoma" label_class="NOT MET"
smiles_str=Cc1ccc(-c2nc(Nc3ccc(C)c(S(N)(=O)=O)c3)c3ccccc3n2)cc1 assayed_system="MDA-MB-435 melanoma" label_class="NOT MET"

Could you now consider this next compound?
growth strictly < 50% for this compound? COc1ccc(C(C)=C(c2ccc(OCCCN(C)C)cc2)c2ccc(OCCCN(C)C)cc2)cc1
MET
